# System: M14 melanoma
# Protocol Summary: NCI-60 one-dose screen, 48 h
# Stated Conditions: 10 µM unless noted
About 83,000 compounds went through this panel and 20% of them were active in at least one assay; those are over-represented in the sample as a whole. Active and inactive are the calls of the source. Rule for the calls: active = growth percent below 10; inactive = the rest.
Possible outcomes: active, inactive

[[record]]
molecule = "C=C1CCC2C3(C)COC(c4ccccc4)OC3CCC2(C)C1C/C=C1/C(=O)OCC1O (stereo unspecified)"
group = "inactive"

[[record]]
molecule = "CCCCCC(=C/c1ccccc1)/C=N/N=C(N)N"
group = "active"

[[record]]
molecule = "CCCNC(=O)Oc1ccc(/C(=C(/CC)Cc2ccccc2)c2ccc(OCCN(CC)CC)cc2)cc1"
group = "active"

[[record]]
molecule = "CC(=O)Nc1ccc(C(=O)/C=C/c2ccc(N(C)C)cc2)cc1"
group = "inactive"

[[record]]
molecule = "O=S(=O)(O)CCI"
group = "inactive"

[[record]]
molecule = "O=C(CN1C(=O)NC(c2ccccc2)(c2ccccc2)C1=O)c1ccc(N2CCCC2)cc1"
group = "inactive"

